Values from PubChem BioAssay AID1963840

System: 695427-040-R-J1-PDC complex spheroid viability;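 further: spheroids exposed to compounds for seven days; 100% = DMSO vehicle control viability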
Assay: Anticancer human tumor 695427-040-R-J1-PDC patient-derived colon adenocarcinoma cell line growth inhibition [POLQ]
Settings: second compound 0.1 µM; first compound 0.316 µM; stronger effect = lower value
Protocol: Multicellular complex tumor spheroid response to Polymerase (POL) inhibitors (novobiocin, ART-558, RP6685) in combination with a variety of drugs and investigational agents in selected tumor cell lines The POL inhibitors (novobiocin, ART-558, and RP6685) were evaluated both individually and in combination with standard of care and investigational anticancer small molecules within a complex spheroid model of solid tumors. . […]
Catalogue of viability, T/C values
Number in %, nothing else.

Some compounds with known viability, T/C results, for comparison:
CCCS(=O)(=O)Nc1ccc(F)c(C(=O)c2c[nH]c3ncc(-c4ccc(Cl)cc4)cc23)c1F + Nc1ccc(C#CCN(C(=O)Cc2ncc(C(F)(F)F)cc2C(F)(F)F)c2ccc(F)cc2)nn1
105
COc1cccc2c1C(=O)c1c(O)c3c(c(O)c1C2=O)CC(O)(C(=O)CO)CC3OC1CC(N)C(O)C(C)O1 (stereo not drawn) + Nc1ccc(C#CCN(C(=O)Cc2ncc(C(F)(F)F)cc2C(F)(F)F)c2ccc(F)cc2)nn1
98.9

Read the next record carefully.
(Q) Test system 695427-040-R-J1-PDC complex spheroid viability; read-out viability, T/C; what value for CCc1cc2c(N3CCc4c(cc(Cn5ccnc5)cc4-c4cn(C)nc4C(F)(F)F)C3=O)ccnc2c(OC)n1 + Nc1ccc(C#CCN(C(=O)Cc2ncc(C(F)(F)F)cc2C(F)(F)F)c2ccc(F)cc2)nn1 ?;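 further: spheroids exposed to compounds for seven days; 100% = DMSO vehicle control viability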
(A) 101
